Values were extracted from PubChem BioAssay (Tox21).

measured on: Acetylcholinesterase (Homo sapiens)
procedure summary: Acetylcholinesterase (AChE) small molecule antagonists: fluorescence cell-based qHTS assay (AID 1347398); further: nearly all actives have a fitted effect of over 50% in size
condition parameters: SH-SY5Y cells; AChE activity; series mostly up to 115 µM
Records with an inconclusive call do not appear. Calls of active or inactive are those of the source. The call rests on the fitted dose curve.
Answer with one of the outcomes given here: yes (1) = active, no (0) = inactive

Solved entries (count: 2):
{"columns": ["molecule", "answer label"],
 "data": [
  ["O=c1[nH]c2ccccc2o1", "no (0)"],
  ["Cn1c(CCCC(=O)O)nc2cc(N(CCCl)CCCl)ccc21", "no (0)"]
]}

Ask: Tell me the assay call for NCCOS(=O)(=O)O please.
Result: no (0)

Ask: Tell me the assay call for S=C=S please.
Result: no (0)

Ask: Tell me the assay call for O=C/C=C/c1ccco1 please.
Result: no (0)

Ask: Tell me the assay call for CCN[C@@H](C)Cc1ccccc1 please.
Result: no (0)

Ask: Tell me the assay call for ClCCCCl please.
Result: no (0)

Ask: Tell me the assay call for ClCOCCl please.
Result: no (0)

Ask: Tell me the assay call for CCC(C(N)=O)N1CCCC1=O (centres undefined) please.
Result: no (0)

Ask: Tell me the assay call for CC(C)(C)NC[C@H](O)c1ccc(O)cc1Cl please.
Result: no (0)

Ask: Tell me the assay call for c1cncc([C@@H]2CCCCN2)c1 please.
Result: no (0)

====

procedure summary: qHTS assay to identify aromatase inhibitors - cell viability counter screen (AID 743084);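 further: cells stimulated with testosterone during compound exposure; nearly all actives have a fitted effect of over 55% in size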
condition parameters: MCF-7 aro ERE viability, CellTiter-Fluor, 24 h; series mostly up to 70.3 µM
Records with an inconclusive call do not appear. Calls of active or inactive are those of the source. Calls come from the whole dose curve; as a rule, active = well fitted cell-killing curve with a large enough effect in the repeat runs; inconclusive = weak or mixed curves, or effect the other way; inactive = no such curve, though single readings can be large or run the other way.
Answer with one of the outcomes given here: Y for active, N for inactive

Solved entries (count: 5):
{"columns": ["compound", "answer label"],
 "data": [
  ["CS(=O)(=O)Cl", "N"],
  ["O=P(O)(O)c1ccccc1", "N"],
  ["CC1N=C(N)OC1c1ccccc1 (stereo unspecified)", "N"],
  ["Cn1c(N)nc2c3cccnc3ccc21", "Y"],
  ["CCN[C@@H](C)Cc1ccccc1", "N"]
]}

Ask: Tell me the assay call for CCCC(C)C1(CC)C(=O)N=C(S)NC1=O (stereo unspecified) please.
Result: N

Ask: Tell me the assay call for CCCN1CCC[C@@H]2Cc3nc(N)ncc3C[C@H]21 please.
Result: N

Ask: Tell me the assay call for O=C(Cl)/C=C/C(=O)Cl please.
Result: N

Ask: Tell me the assay call for CN(CCO)CCO please.
Result: N

Ask: Tell me the assay call for ClC(Cl)(Cl)Cl please.
Result: N

Ask: Tell me the assay call for N[C@@H]1C[C@H]1c1ccccc1 please.
Result: N

====

procedure summary: qHTS assay to identify small molecule antagonists of the TGF-beta/Smad signaling pathway - cell viability counter screen (AID 1346824); further: nearly all actives have a fitted effect of over 50% in size
condition parameters: SBE-bla HEK293T viability, CellTiter-Glo luminescence; series mostly up to 76.8 µM
Results filed as inconclusive are left out. Calls of active or inactive are those of the source. Calls follow the shape of the dose curve; as a rule, active = well fitted cell-killing curve with a large enough effect in the repeat runs; inconclusive = weak or mixed curves; inactive = flat fitted curve, though single readings scatter.
assay endpoint: viability change, negative = cytotoxic

{"columns": ["compound", "viability change, negative = cytotoxic"],
 "data": [
  ["O=C(O)C(F)(F)C(F)(F)C(F)(F)C(F)(F)C(F)(F)C(F)(F)F", "inactive"],
  ["CCCC(C)(COC(N)=O)COC(N)=O", "inactive"],
  ["CC[C@H](N)c1ccccc1", "inactive"],
  ["CC[C@@H](CO)NC(=O)[C@@H]1C=C2c3cccc4c3c(cn4C)C[C@H]2N(C)C1", "inactive"],
  ["C=CCC1(C(C)CC)C(=O)NC(=O)NC1=O (centres undefined)", "inactive"]
]}

Provide viability change, negative = cytotoxic values for the following items, in order.
1. N#CC(Br)(Br)C(N)=O
2. COC(=O)[C@@H](N)CCCN/C(N)=N/[N+](=O)[O-]
3. CCOC(=O)C(SP(=S)(OC)OC)c1ccccc1 (centres undefined)
4. C=C(C)[C@H]1CN[C@H](C(=O)O)[C@H]1CC(=O)O

Result:
inactive
inactive
inactive
inactive
